The reported numbers originate from ChEMBL document CHEMBL5108047.

measurementProtocol: Oral bioavailability in CD-1 mouse at […] measured upto 24 hrs by reverse phase LCMS analysis
Type: ADME, organism-based
cond: in vivo
property: bioavailability (%)
The answer is to be given in %; state only the numeric part.

According to the records, this molecule Nc1ccc(C#CCN(C(=O)Cc2ncc(C(F)(F)F)cc2C(F)(F)F)c2ccc(F)cc2)nn1 displays bioavailability of 66

----------
measurementProtocol: fCaverage in CD-1 mouse
Type: ADME
Assign class by f(Cave): not lower than 30 nM means y; lower than 30 nM means n.

Dear colleague, could you confirm whether CC(C(N)=O)n1cc(C#CCN(C(=O)Cc2ncc(C(F)(F)F)cc2C(F)(F)F)c2ccc(F)cc2)cn1 (stereo not drawn) has f(Cave) at or above 30 nM?
y

Dear colleague, could you confirm whether COc1ncc(C#CCN(C(=O)Cc2ncc(C(F)(F)F)cc2C(F)(F)F)c2ccc(F)cc2)cn1 has f(Cave) at or above 30 nM?
n

Dear colleague, could you confirm whether Nc1cnc(C#CCN(C(=O)Cc2ncc(C(F)(F)F)cc2C(F)(F)F)c2ccc(F)cc2)cn1 has f(Cave) at or above 30 nM?
y

Dear colleague, could you confirm whether Nc1ncc(C#CCN(C(=O)Cc2ncc(C(F)(F)F)cc2C(F)(F)F)c2ccc(F)cc2)cn1 has f(Cave) at or above 30 nM?
y

Dear colleague, could you confirm whether O=C(Cc1ncc(C(F)(F)F)cc1C(F)(F)F)N(CC#Cc1cnn(C2CNC2)c1)c1ccc(F)cc1 has f(Cave) at or above 30 nM?
n

Dear colleague, could you confirm whether CS(=O)(=O)Cn1cc(C#CCN(C(=O)Cc2ncc(C(F)(F)F)cc2C(F)(F)F)c2ccc(F)cc2)cn1 has f(Cave) at or above 30 nM?
y

Dear colleague, could you confirm whether Nc1ccc(C#CCN(C(=O)Cc2ncc(C(F)(F)F)cc2C(F)(F)F)c2ccc(F)cc2)nn1 has f(Cave) at or above 30 nM?
y

Dear colleague, could you confirm whether COc1ccc(C#CCN(C(=O)Cc2ncc(C(F)(F)F)cc2C(F)(F)F)c2ccc(F)cc2)nn1 has f(Cave) at or above 30 nM?
n
